The origin of these recorded values is patent US11753408B2.

- assay.name: Microsomal stability (rat)
- Assay type: in vitro ADME
- reported.conditions: rat microsomes
Below is a list of entries, each paired with its recorded Microsomal Stability (rat) T1/2 value.
Reply with just the number (in min).

Worked examples follow.
{"compound.string": "CN1C(=O)CCc2cc(-n3c(=O)ccc4cnc5ccc(-c6ccc(Cl)cc6)cc5c43)ccc21", "Microsomal Stability (rat) T1/2 [min]": 14.9}
{"compound.string": "O=C(c1ccc(-n2c(=O)ccc3c(F)nc4ccc(-c5ccc(Cl)cc5)cc4c32)cc1)N1CCOCC1", "Microsomal Stability (rat) T1/2 [min]": 3.4}

Challenge: Item Cc1cc(C(=O)NC2CC2)ccc1-n1c(=O)ccc2cnc3ccc(-c4ccc(Cl)c(O)c4)cc3c21 has what recorded Microsomal Stability (rat) T1/2?
Response given: 23.3

Challenge: Need Microsomal Stability (rat) T1/2, item CNC(=O)c1ccc(-n2c(=O)ccc3cnc4ccc(-c5ccc(Cl)cc5)cc4c32)cc1
Response given: 16.9

Challenge: Which value of Microsomal Stability (rat) T1/2 has been reported for O=C(NCCCN(CCO)CCO)c1ccc(-n2c(=O)ccc3cnc4ccc(-c5ccc(Cl)cc5)cc4c32)cc1 in the records?
Response given: 2.6

----------
- assay.name: Solubility at pH 7.4
- Assay type: physicochemical
# maps each entry to its Sol @ pH 7.4 (ug/mL)

Here's what some known entries look like.
{"molecule": "CN(C)Cc1cc(-n2c(=O)ccc3cnc4ccc(-c5ccc(Cl)cc5)cc4c32)ccc1S(C)(=O)=O", "Sol @ pH 7.4 (ug/mL)": "<1 ug/mL"}
{"molecule": "CN(C)C(=O)c1cc(-c2ccc3ncc4ccc(=O)n(-c5ccc(S(C)(=O)=O)cc5)c4c3c2)ccc1Cl", "Sol @ pH 7.4 (ug/mL)": "2.7 ug/mL"}
{"molecule": "Cc1c(C#N)cccc1-n1c(=O)ccc2cnc3ccc(-c4ccc(Cl)cc4)cc3c21", "Sol @ pH 7.4 (ug/mL)": "<1 ug/mL"}
{"molecule": "Cc1ccc(C#N)cc1-n1c(=O)ccc2cnc3ccc(-c4ccc(CN(C)C)cc4)cc3c21", "Sol @ pH 7.4 (ug/mL)": ">66.00 ug/mL"}
{"molecule": "CS(=O)(=O)c1cccc(-n2c(=O)ccc3cnc4ccc(-c5ccc(N)nc5)cc4c32)c1", "Sol @ pH 7.4 (ug/mL)": "49.68 ug/mL"}

Challenge: Look up Sol @ pH 7.4 (ug/mL): COC(=O)c1cc(-c2ccc3ncc4ccc(=O)n(-c5ccc(S(C)(=O)=O)cc5)c4c3c2)ccc1Cl
Response given: <1.0 ug/mL

Challenge: Return reported Sol @ pH 7.4 (ug/mL); argument: NC1(c2ccc(-c3ccc4ncc5ccc(=O)n(-c6ccc7c(c6)CNC7=O)c5c4c3)cc2)CCC1
Response given: 6.5 ug/mL

Challenge: What value of Sol @ pH 7.4 (ug/mL) has been recorded for this entry: CN(C)Cc1ccc(-c2ccc3ncc4ccc(=O)n(-c5ccc6c(c5)CCC(=O)N6C)c4c3c2)cc1
Response given: >72.00 ug/mL

Challenge: Item CN(C)Cc1ccc(-c2ccc3ncc4ccc(=O)n(-c5ccc([S+](C)[O-])cc5)c4c3c2)cc1 (stereo not drawn) has what recorded Sol @ pH 7.4 (ug/mL)?
Response given: >69.00 ug/mL

Challenge: Form field: reported Sol @ pH 7.4 (ug/mL) of CN1Cc2cc(-n3c(=O)ccc4cnc5ccc(-c6ccc(F)cc6)cc5c43)ccc2C1=O
Response given: 0.73 ug/mL

Challenge: # input molecule: CCN(CC)Cc1ccc(-c2ccc3ncc4ccc(=O)n(-c5cc(C#N)ccc5C)c4c3c2)cc1 ; wanted: its Sol @ pH 7.4 (ug/mL)
Response given: 58.6 ug/mL

Challenge: For the molecule shown here, Cc1cc(S(C)(=O)=O)ccc1-n1c(=O)ccc2cnc3ccc(-c4ccc(Cl)cc4)cc3c21 , give the reported Sol @ pH 7.4 (ug/mL).
Response given: <1 ug/mL

Challenge: I have this molecule here, O=c1ccc2cnc3ccc(-c4ccc(Cl)cc4)cc3c2n1-c1ccc(S(=O)(=O)N2CCOCC2)cc1 , and I need its recorded Sol @ pH 7.4 (ug/mL).
Response given: <1.0 ug/mL

Challenge: GET /values?readout=Sol @ pH 7.4 (ug/mL)&item= CN(C)Cc1ccc(-c2ccc3ncc4ccc(=O)n(-c5ccc(S(=O)(=O)NC6CC6)cc5)c4c3c2)cc1
Response given: 7.9 ug/mL

Challenge: Item under review: CN1Cc2cc(-n3c(=O)ccc4cnc5ccc(-c6ccc(Cl)cc6)cc5c43)ccc2C1=O . Reported Sol @ pH 7.4 (ug/mL)?
Response given: <1.0 ug/mL
